# TARGET OR TEST SYSTEM: T1, Pex13, P80667
# T1 sequence (P80667 295-386, looked up): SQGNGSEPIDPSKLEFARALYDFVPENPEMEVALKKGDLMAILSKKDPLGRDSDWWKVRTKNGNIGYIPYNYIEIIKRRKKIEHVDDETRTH
# RUN DESCRIPTION: SPOT array
# CONDITION INFO: median of control spots 1341
Measured SPOT intensity of individual entries
RECORDED METRIC: SPOT intensity

SPLGAPPPPPHKDHL: 0
TEVPIPRRPPPPQAA: 0
RLSFFFPLDPAYIRN: 21
ATKSASPTLPTRRSR: 249
TTNRGPPPLPPRANV: 470
DTFLPPPPPPPSNFE: 8
NNFYRPLLRSVLVLL: 4
DLFKPLPEPPTELGR: 47
MARRRLPDRPPNGIG: 99
PSPSSSPPPIPKTAN: 0
LKRITSPPLPPRADS: 145
KRRAPPPVPKKPSSR: 47
RTRRRPPPPPIPSTQ: 21
NRARYLPQNPDIIAG: 0
GDHPKGPPPPPPPDE: 0
